All values here come from paper PMC5540273.

- Test system: ERBB2
- conditions.used: concentration: 1 μM, replicates: in singlicate; n = 1;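 further: KINOMEscan kinase panel screen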
observation.type: %Inh (%)
Answer in %, number only, no unit symbol.

// worked examples, %Inh included
- smi: "Cc1cccc(Nc2nc(NCCN)ncc2C(N)=O)c1"
  unit.annotation: "%"
  experimental.value: 4
- smi: "Nc1ncc(-c2ccc3nccc(-c4ccncc4)c3c2)cc1S(=O)(=O)N1CCCCC1"
  unit.annotation: "%"
  experimental.value: 31
- smi: "Cc1cc(-c2c(-c3ccc(F)cc3)ncn2CCCN2CCOCC2)nc(N)n1"
  unit.annotation: "%"
  experimental.value: 0

Cc1cccc(Nc2nc(N[C@H]3CCCC[C@H]3N)ncc2C(N)=O)c1.Cl has a reported %Inh of 20

For record Fc1cc(Cl)ccc1Nc1ccnc2cc(-c3ccc(CN4CCOCC4)o3)ccc12 the listed %Inh is 34

Memo: COc1cccc(-c2nc(-c3ccccc3)[nH]c2-c2ccncc2)c1 , reported %Inh: 31

For reference, reported %Inh for COc1ccc(NC(=O)c2ccoc2)cc1-c1ccc(C(=O)NCC2CC2)cc1 stands at 15

###

- Tested on: PRP4
- conditions.used: concentration: 1 μM, replicates: in singlicate; n = 1
Readings of %Inh for the listed compounds
Give just the numeric value; % need not be written.

- compound: "COc1cccc2c(-c3ccncc3)c(-c3ccc(F)cc3)nn12"
  unit.annotation: "%"
  %Inh: 25
- compound: "Cc1cc(-c2c(-c3ccc(F)cc3)ncn2CCCN2CCOCC2)nc(N)n1"
  unit.annotation: "%"
  %Inh: 0
- compound: "O=C(Nc1c(F)cccc1F)c1cc(C(=O)c2ccccc2F)c[nH]1"
  unit.annotation: "%"
  %Inh: 0
- compound: "Cc1ccc(C)c(NC(=O)Nc2ccc(C)c(-c3ccc(C(=O)Nc4ccncc4)cc3)c2)c1"
  unit.annotation: "%"
  %Inh: 0
- compound: "COc1cc(Nc2nccc(N3CCC(NC(=O)Nc4ccc5c(c4)OCO5)C3)n2)cc(OC)c1OC (centres unmarked)"
  unit.annotation: "%"
  %Inh: 50

The recorded %Inh with PRP4 for CN1CCN(Cc2ccc(NC(=O)Nc3ccc(N(C)c4ccnc(Nc5ccc(CS(C)(=O)=O)cc5)n4)cc3)cc2)CC1.Cl was 33

Entry Cl.Cl.NC(CNC(=O)c1cc(Br)c(-c2ccnc3[nH]ccc23)s1)c1ccccc1 (centres unmarked) ; assay system PRP4; %Inh recorded at 87

The reported PRP4 %Inh of O=C1NC(=O)C(c2ccccc2Cl)=C1Nc1cccc(Cl)c1 is 0

###

- Tested on: PIK3CA
- conditions.used: concentration: 1 μM, replicates: in singlicate; n = 1
observation.type: %Inh (%)
Please state the figure in %; there is no need to write the unit.

# example entries with known answers
- smi: "CN(c1ccc2c(c1)nc(NCc1ccccc1)n2C)c1ccnc(Nc2ccc(CS(C)(=O)=O)cc2)n1.Cl"
  experimental.value: 0
- smi: "COc1ccc(C)c(Nc2ccnc(Nc3ccc(-c4cnc[nH]4)cc3)n2)c1.Cl"
  experimental.value: 0
- smi: "CCn1cnc2c(NCc3ccccc3)ncnc21"
  experimental.value: 0
- smi: "c1ccc(Oc2ccc(Nc3ccnc4cc(-c5ccc(CN6CCCCC6)o5)ccc34)cc2)nc1"
  experimental.value: 0
- smi: "O=C1NC(=O)C(c2ccccc2Cl)=C1Nc1cccc(Cl)c1"
  experimental.value: 0

Kindly consider the entry below.
Noted for O=C(Nc1n[nH]c2nc(-c3ccccc3)ccc12)C1CC1 : its %Inh reads 11
